Tested on: HER2/Neu protein in MCF7 breast carcinoma cells
Assay: HER2 degradation assay (flow cytometry)
Type: cell-based
Settings: Homo sapiens, 50% degradation of HER2/Neu protein, 16 h
Readout: IC50 (nM)
Numbers only, in nM.

COc1cc(Cn2cnc3c(Br)nc(N)nc32)c(Cl)c(OC)c1OC
100
COc1cc(Cn2cnc3c(Cl)nc(N)nc32)c(Br)c(OC)c1C
80
COc1cc(Cn2cnc3c(Cl)nc(N)nc32)c(Br)c(OC)c1OC
55

Please find the next molecule below.
*Q* So what does the record say about IC50 for "COc1cc(Cn2cnc3c(Br)nc(N)nc32)c(Br)c(OC)c1OC" ?
*A* 55

The measurements presented in this section are drawn from patent US7138401B2.
